Listed here are sequences together with their documented furin cleavage Z-score.
biological target: furin, P09958; assay: furin cleavage Z-score vs untreated control; higher = more cleavage, active = 3.5 or more, inactive = 1 or less, 8 variable residues between constant flanks; details: 7.5 min;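 note: purified furin at 1:10 enzyme:substrate in 50 mM HEPES pH 7.5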
Sequence (P09958 whole entry): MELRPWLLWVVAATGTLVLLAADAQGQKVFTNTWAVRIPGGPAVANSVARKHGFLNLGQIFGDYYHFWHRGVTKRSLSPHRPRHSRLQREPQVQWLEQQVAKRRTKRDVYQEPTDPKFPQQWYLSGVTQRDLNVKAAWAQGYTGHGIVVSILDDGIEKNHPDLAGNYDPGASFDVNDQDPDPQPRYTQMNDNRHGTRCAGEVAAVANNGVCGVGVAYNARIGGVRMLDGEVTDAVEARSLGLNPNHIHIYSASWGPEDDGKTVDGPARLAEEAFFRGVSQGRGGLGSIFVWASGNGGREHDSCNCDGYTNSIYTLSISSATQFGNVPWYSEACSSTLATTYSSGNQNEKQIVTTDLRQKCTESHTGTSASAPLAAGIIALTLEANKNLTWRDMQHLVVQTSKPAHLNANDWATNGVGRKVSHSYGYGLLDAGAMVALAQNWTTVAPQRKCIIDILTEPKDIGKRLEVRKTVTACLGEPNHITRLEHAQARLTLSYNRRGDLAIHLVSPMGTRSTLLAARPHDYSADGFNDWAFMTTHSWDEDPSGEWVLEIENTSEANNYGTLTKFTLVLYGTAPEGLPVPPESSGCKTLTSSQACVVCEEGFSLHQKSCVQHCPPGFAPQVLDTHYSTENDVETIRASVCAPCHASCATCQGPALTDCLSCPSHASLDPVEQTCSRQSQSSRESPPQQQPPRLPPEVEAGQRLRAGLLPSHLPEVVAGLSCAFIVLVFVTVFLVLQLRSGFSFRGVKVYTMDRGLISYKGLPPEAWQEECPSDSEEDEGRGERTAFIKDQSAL
Some of the results follow. The hit rate among all sequences tested is not known here.
RECORDED ENDPOINT: furin cleavage Z-score

CALSTGCVVIAGNASASA [HC998]	-0.865
CARWRRSDILAGNASASA [FS-3133]	1.69
CAFRARQIRYAGNASASA [FS-419]	2.8
